assay: Plasma concentration versus time of Compound I and metabolite Compound III in patients dosed QD or BID with Form B of Compound II plus fulvestrant; assay type: in vivo, human; settings: human, plasma, oral, 500 mg, 500 mg QD of Form B, Day 29, 2.0 h, Median; read-out: Compound I Concentration
Test readout: concentration at 2 h

INSERT INTO assay_data (chemical_string, value_reported) VALUES
  ('CC(C)N1CCN(c2ccc(Nc3ncc4cc5n(c4n3)C3(CCCCC3)CNC5=O)nc2)CC1', '33.8 ng/mL');

----------
test: Plasma concentration versus time of Compound I and metabolite Compound III in patients dosed QD or BID with Form B of Compound II plus fulvestrant; format: in vivo, human; conditions: human, plasma, oral, 500 mg, Cohort 4, 500 mg QD of Form B, Day 15; read-out: Trough Compound I Concentration, Median
Test readout: concentration at 15 day (ng/mL)

INSERT INTO measurements (chemical_string, test_readout, value_reported) VALUES
  ('CC(C)N1CCN(c2ccc(Nc3ncc4cc5n(c4n3)C3(CCCCC3)CNC5=O)nc2)CC1', 'concentration at 15 day', 23.9);

Numbers sourced from patent US11357779B2.
